System: AURKA;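 also: KINOMEscan scanMAX binding as percent activity remaining versus control; lower means stronger binding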
Settings: Compound Concentration (nM):1000
The following compounds are shown together with reported Percent Control values.
Answer in %, number only, no unit symbol.

Here is how some compounds turned out for Percent Control.
> print(dat)
                                   compound  result.value
1  Cl.O=C(Nc1ccc(Oc2ccc3[nH]c(NC(=O)c4ccco4)nc3c2)cc1)Nc1cc(C(F)(F)F)ccc1F [GW683134A]            98
2  Cl.O=C(O[C@H]1CN[C@H](C#Cc2cc3ncnc(Nc4ccc5c(cnn5Cc5ccccc5)c4)c3s2)C1)N1CCOCC1 [GSK200398A]            71
3  O=C(Nc1n[nH]c2nc(-c3ccc(O)cc3)c(Br)cc12)C1CC1 [SB-725317]           100
4  COc1cc(C=NNc2ncnc3c2cnn3-c2ccccc2)ccc1O [GW513184X]            33

In plain terms, COc1ccc(COc2ccc(Cc3cnc(N)nc3N)cc2OC)cc1 [GW632580X] has a documented Percent Control of 76
